test: Stability studies (storage at 60 °C in closed bottles or at 40 °C / 75 % RH in an open bottle; related substances by HPLC); conditions: 2 weeks, 60°C, closed; 20160 min
Counter-ions that a name gives are not always drawn.
experimental endpoint: Related Substances 2 W 60°C closed (%)
Report the figure in % without appending any unit label.

compound | observed
N[C@@H](CC(=O)N1CCn2c(nnc2C(F)(F)F)C1)Cc1cc(F)c(F)cc1F [E: Sulfate I, Sitagliptin Sulfate Form I] | 0.08
N[C@@H](CC(=O)N1CCn2c(nnc2C(F)(F)F)C1)Cc1cc(F)c(F)cc1F [M: Phosphate H2O] | 0.12
N[C@@H](CC(=O)N1CCn2c(nnc2C(F)(F)F)C1)Cc1cc(F)c(F)cc1F [N: Mesylate II] | 0.16
N[C@@H](CC(=O)N1CCn2c(nnc2C(F)(F)F)C1)Cc1cc(F)c(F)cc1F [O: Sulfate II] | 0.20
N[C@@H](CC(=O)N1CCn2c(nnc2C(F)(F)F)C1)Cc1cc(F)c(F)cc1F [Q: HCl II] | 0.23
N[C@@H](CC(=O)N1CCn2c(nnc2C(F)(F)F)C1)Cc1cc(F)c(F)cc1F [A: Phosphate, Sitagliptin Phosphate] | 0.50

Looking up N[C@@H](CC(=O)N1CCn2c(nnc2C(F)(F)F)C1)Cc1cc(F)c(F)cc1F [Base, reference compound] , I found its Related Substances 2 W 60°C closed recorded as 0.37

Looking up N[C@@H](CC(=O)N1CCn2c(nnc2C(F)(F)F)C1)Cc1cc(F)c(F)cc1F [H: Glycolate] , I found its Related Substances 2 W 60°C closed recorded as 1.81

Looking up N[C@@H](CC(=O)N1CCn2c(nnc2C(F)(F)F)C1)Cc1cc(F)c(F)cc1F [C: Lactate, Sitagliptin Lactate] , I found its Related Substances 2 W 60°C closed recorded as 0.43

Looking up N[C@@H](CC(=O)N1CCn2c(nnc2C(F)(F)F)C1)Cc1cc(F)c(F)cc1F [B: HCl I, Sitagliptin Hydrochloride Form I] , I found its Related Substances 2 W 60°C closed recorded as 0.01
